Test system: NCI-H522
Assay: Growth inhibition of human NCI-H522 cells at 10 uM relative to control
Format: functional
Settings: values are per cent of control

smiles repr	measurement target	measurement unit	growth, % of control at 10 µM
O=C(/C=C/c1cn(CC(=O)c2ccccc2)nn1)NO	NCI-H522	%	31.1
O=C(Cn1cc(C(=O)NO)nn1)c1ccccc1	NCI-H522	%	99.2
O=C(NO)c1cn(C/C=C/c2ccccc2)nn1	NCI-H522	%	92.5
O=C(/C=C/c1cn(C/C=C/c2ccccc2)nn1)NO	NCI-H522	%	8.32
O=C(/C=C/c1cn(CCc2ccccc2)nn1)NO	NCI-H522	%	27.7
O=C(/C=C/c1cn(CC(=O)Nc2ccccc2)nn1)NO	NCI-H522	%	41
